System: Avena fatua (AVEFA)
ASSAY: Example A post-emergence herbicidal test, AVEFA
Assay type: in vivo
APPLIED_CONDITIONS: rate 250 g/ha, evaluated 14 or 15 days after spraying
I'd appreciate it if you could supply Post-Emergence Activity AVEFA (100=total damage to plant; 0=no damage to plant) values for the items below.
Answers are plain numbers.

Cc1cc(C)c(C2C(=O)CC(CC3CCOCC3)C2=O)c(C)c1 (stereo not shown) :: 90

Hi team, please reply with Post-Emergence Activity AVEFA (100=total damage to plant; 0=no damage to plant) for each item in this list.
1. Cc1cc(C)c(C2C(=O)CC(CC3CCOC3)C2=O)c(C)c1 (stereo not shown)
2. Cc1cc(C)c(C2=C(OC(=O)C(C)(C)C)CC(CC3CCOCC3)C2=O)c(C)c1 (stereo not shown)
3. Cc1cc(C)c(C2C(=O)C/C(=C\C3CCOCC3)C2=O)c(C)c1 (stereo not shown)

Given back:
1: 80; 2: 100; 3: 90

----------
I'd appreciate it if you could supply pest or weed control at 250 g/ha values for the items below.
Test system: Alopecurus myosuroides (ALOMY)
ASSAY: Example B post-emergence herbicidal test, ALOMY
Format: in vivo
APPLIED_CONDITIONS: Alopecurus myosuroides, 312 h, rate 250 g/ha, evaluated after 13 days, scale 0-100, read-out: Post-emergence activity ALOMY (100=total damage to plant; 0=no damage to plant)

These solved cases illustrate the format of a correct answer.
Cc1cc(C)c(C2=C(OC(=O)c3ccc(Cl)nc3)CC(CC3CCN(C(=O)c4ccc(Cl)nc4)C3)C2=O)c(C)c1 (centres unmarked) :: 100%
CCS(=O)(=O)N1CCC(CC2CC(=O)C(c3c(C)cc(C)cc3C)C2=O)CC1 (centres unmarked) :: 90%
Cc1cc(C)c(C2C(=O)CC(CC3CCN(C(=O)c4ccc(Cl)cc4)CC3)C2=O)c(C)c1 (centres unmarked) :: 90%
Cc1cc(C)c(C2C(=O)C/C(=C\C3CCN(Cc4ccccc4)CC3)C2=O)c(C)c1 (centres unmarked) :: 10%
Cc1cc(C)c(C2C(=O)C/C(=C\C3CCN(S(C)(=O)=O)C3)C2=O)c(C)c1 (centres unmarked) :: 90%

Hi team, please reply with pest or weed control at 250 g/ha for each item in this list.
1. CCCCOC(=O)N1CCC(CC2CC(=O)C(c3c(C)cc(C)cc3C)C2=O)CC1 (centres unmarked)
2. Cc1cc(C)c(C2C(=O)CC(CC3CCN(C(=O)OC(C)C)CC3)C2=O)c(C)c1 (centres unmarked)
3. Cc1cc(C)c(C2C(=O)CC(CC3CCN(c4ccc(Cl)cc4)CC3)C2=O)c(C)c1 (centres unmarked)

Given back:
30%
70%
30%

----------
I'd appreciate it if you could supply pest or weed control at 250 g/ha values for the items below.
Test system: Lolium perenne (LOLPE)
ASSAY: Example B post-emergence herbicidal test, LOLPE
Format: in vivo
APPLIED_CONDITIONS: Lolium perenne, 312 h, rate 250 g/ha, evaluated after 13 days, scale 0-100, read-out: Post-emergence activity LOLPE (100=total damage to plant; 0=no damage to plant)
Numbers only, in %.

Hi team, please reply with pest or weed control at 250 g/ha for each item in this list.
1. Cc1cc(C)c(C2C(=O)CC(CC3CCN(C(=O)c4ccccc4)C3)C2=O)c(C)c1 (stereo not shown)
2. CCCCCCC(=O)OC1=C(c2c(C)cc(C)cc2C)C(=O)C(CC2CCOC2)C1 (stereo not shown)

Given back:
[100, 100]

Hi team, please reply with pest or weed control at 250 g/ha for each item in this list.
1. CCS(=O)(=O)N1CCC(CC2CC(=O)C(c3c(C)cc(C)cc3C)C2=O)CC1 (stereo not shown)
2. Cc1cc(C)c(C2=C(OC(=O)c3cccs3)CC(CC3CCN(C(=O)c4cccs4)C3)C2=O)c(C)c1 (stereo not shown)

Given back:
[100, 90]

----------
Test system: Lolium perenne (LOLPE)
ASSAY: Example B post-emergence herbicidal test, LOLPE
Format: in vivo
APPLIED_CONDITIONS: Lolium perenne, 312 h, rate 250 g/ha, evaluated after 13 days, scale 0-100, read-out: Post-emergence activity LOLPE (100=total damage to plant; 0=no damage to plant)
Binary call on pest or weed control at 250 g/ha: y from 60% upward, n beneath that.

Use the examples below as a reference point.
Cc1cc(C)c(C2C(=O)CC(CC3CCN(C(=O)c4cc(C)on4)CC3)C2=O)c(C)c1 (centres unmarked) :: y
Cc1cc(C)c(C2C(=O)CC(CC3CCN(C(=O)c4cc(F)c(Cl)nc4Cl)CC3)C2=O)c(C)c1 (centres unmarked) :: n
Cc1cc(C)c(C2=C(OC(=O)C(C)(C)C)C/C(=C\C3CCSCC3)C2=O)c(C)c1 :: n
CCC1(CC2CCOC2)CC(=O)C(c2c(C)cc(C)cc2C)C1=O (centres unmarked) :: n
Cc1ccc(C(=O)N2CCC(CC3CC(=O)C(c4c(C)cc(C)cc4C)C3=O)CC2)cc1 (centres unmarked) :: n

Asked: Confirm if pest or weed control at 250 g/ha reported for the compound Cc1cc(C)c(C2C(=O)CC(CC3CCOC3C)C2=O)c(C)c1 (centres unmarked) is 60% or above.
Given back: y

Asked: Confirm if pest or weed control at 250 g/ha reported for the compound CCc1cc(C)cc(C)c1C1C(=O)CC(CC2CCOCC2)C1=O (centres unmarked) is 60% or above.
Given back: y

----------
Test system: Lolium perenne (LOLPE)
ASSAY: Example B post-emergence herbicidal test, LOLPE
Type: in vivo
APPLIED_CONDITIONS: Lolium perenne, 312 h, rate 250 g/ha, evaluated after 13 days, scale 0-100, read-out: Post-emergence activity LOLPE (100=total damage to plant; 0=no damage to plant)
QUANTITY_NAME: pest or weed control at 250 g/ha (%)
One number for each entry, in %.

Hi team, please reply with pest or weed control at 250 g/ha for each item in this list.
1. Cc1cc(-c2ccc(C(F)(F)F)cc2)cc(C)c1C1C(=O)C/C(=C\C2CCOCC2)C1=O (centres unmarked)
2. Cc1cc(C)c(C2=C(OC(=O)C(C)C)CC(CC3CCOC3)C2=O)c(C)c1 (centres unmarked)
3. Cc1cc(C)c(C2=C(OC(=O)c3ccccc3)C/C(=C\C3CCN(C(=O)c4ccccc4)C3)C2=O)c(C)c1 (centres unmarked)

Given back:
0
100
90

Hi team, please reply with pest or weed control at 250 g/ha for each item in this list.
1. Cc1cc(C)c(C2C(=O)CC(CC3CCN(C(=O)c4ccsc4)CC3)C2=O)c(C)c1 (centres unmarked)
2. Cc1cc(C)c(C2C(=O)C/C(=C\C3CCN(C(=O)OCc4ccccc4)CC3)C2=O)c(C)c1 (centres unmarked)
3. Cc1cccc(C)c1C1C(=O)CC(CC2CCOCC2)C1=O (centres unmarked)

Given back:
70
20
90

----------
System: Lolium perenne (LOLPE)
ASSAY: Example B post-emergence herbicidal test, LOLPE
Type: in vivo
APPLIED_CONDITIONS: Lolium perenne, 312 h, rate 250 g/ha, evaluated after 13 days, scale 0-100, read-out: Post-emergence activity LOLPE (100=total damage to plant; 0=no damage to plant)
QUANTITY_NAME: pest or weed control at 250 g/ha
A bare number is not enough; add the unit after it.

Cc1cc(C)c(C2C(=O)CC(CC3CCCCN3S(C)(=O)=O)C2=O)c(C)c1 (centres unmarked) [Compound T51] :: 60%
Cc1cc(C)c(C2C(=O)CC(CC3CCOCC3)C2=O)c(C)c1 (centres unmarked) [Compound T4] :: 100%
Cc1cc(C)c(C2=C(OS(C)(=O)=O)C/C(=C\C3CCN(S(C)(=O)=O)C3)C2=O)c(C)c1 (centres unmarked) [Compound P46] :: 80%
COCC(=O)N1CCC(CC2CC(=O)C(c3c(C)cc(C)cc3C)C2=O)CC1 (centres unmarked) [Compound T81] :: 90%

Hi team, please reply with pest or weed control at 250 g/ha for each item in this list.
1. Cc1cc(C)c(C2C(=O)CC(CC3CCN(C(=O)C(F)(F)F)CC3)C2=O)c(C)c1 (centres unmarked) [Compound T163]
2. C=COC(=O)N1CCC(CC2CC(=O)C(c3c(C)cc(C)cc3C)C2=O)CC1 (centres unmarked) [Compound T102]
3. Cc1cc(C)c(C2C(=O)CC(CC3CCN(S(=O)(=O)c4ccccc4)CC3)C2=O)c(C)c1 (centres unmarked) [Compound T91]
4. Cc1cc(C)c(C2C(=O)CC(CC3CCN(C(=O)c4ccco4)CC3)C2=O)c(C)c1 (centres unmarked) [Compound T90]
5. Cc1cc(C)c(C2C(=O)CC(CC3CCCO3)C2=O)c(C)c1 (centres unmarked) [Compound T18]
6. Cc1cc(C)c(C2C(=O)C/C(=C\C3CCOCC3)C2=O)c(C)c1 (centres unmarked) [Compound T8]

Given back:
100%
80%
50%
80%
100%
100%
